MEASURED ON: hSP-A (human SP-A, isolated from BAL of PAP patient) (Homo sapiens, UniProt Q8IWL1+Q8IWL2)
Construct: Human PAP patient, BAL isolated; from tissue; host or cells: bronchoalveolar lavage fluid of a patient with pulmonary alveolar proteinosis
Sequence (Q8IWL2 21-248): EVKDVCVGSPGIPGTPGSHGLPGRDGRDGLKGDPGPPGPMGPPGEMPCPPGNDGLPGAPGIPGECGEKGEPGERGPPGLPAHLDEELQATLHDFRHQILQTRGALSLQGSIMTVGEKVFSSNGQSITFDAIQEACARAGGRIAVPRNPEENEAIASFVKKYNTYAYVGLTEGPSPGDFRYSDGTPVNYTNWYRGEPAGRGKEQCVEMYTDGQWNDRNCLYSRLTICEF
Sequence (Q8IWL1 21-248): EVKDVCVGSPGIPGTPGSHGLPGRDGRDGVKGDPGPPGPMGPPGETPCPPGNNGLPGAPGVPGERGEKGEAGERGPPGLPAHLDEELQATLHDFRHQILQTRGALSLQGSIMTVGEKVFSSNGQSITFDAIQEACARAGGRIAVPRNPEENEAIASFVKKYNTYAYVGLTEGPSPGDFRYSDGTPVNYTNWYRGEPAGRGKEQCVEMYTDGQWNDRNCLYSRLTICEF
ASSAY: Microscale thermophoresis (MST) binding to hSP-A
TEST PARAMETERS: hSP-A, apparent KD at protein 9 nM, 25°C; read-out: KD (MST Measurements) ±Kd confidence
pKd: −log10 of the molar value.
Given measured pKd, output fulfilled if it is greater than or equal to 4 and not fulfilled if not.

[[record]]
molecule = "CC(=O)N[C@@H]1C(O)O[C@H](CO)[C@@H](O)[C@@H]1O (stereo partly drawn) [ManNAc, N-acetyl-D-mannosamine monohydrate]"
measured_on = "hSP-A (human SP-A, isolated from BAL of PAP patient) (Homo sapiens, UniProt Q8IWL1+Q8IWL2)"
class_label = "fulfilled"

[[record]]
molecule = "CC(=O)N[C@H]1[C@H]([C@H](O)[C@H](O)CO)OC(O)(C(=O)O)C[C@@H]1O (stereo partly shown) [Neu5Ac, N-acetyl-neuraminic acid]"
measured_on = "hSP-A (human SP-A, isolated from BAL of PAP patient) (Homo sapiens, UniProt Q8IWL1+Q8IWL2)"
class_label = "not fulfilled"

[[record]]
molecule = "C[C@H](O)[C@@H](O)[C@@H](O)[C@H](O)C=O [Fuc, L-fucose]"
measured_on = "hSP-A (human SP-A, isolated from BAL of PAP patient) (Homo sapiens, UniProt Q8IWL1+Q8IWL2)"
class_label = "not fulfilled"

[[record]]
molecule = "OC[C@H]1OC(O)[C@@H](O)[C@@H](O)[C@@H]1O (stereo partly drawn) [Man, D(+)-mannose]"
measured_on = "hSP-A (human SP-A, isolated from BAL of PAP patient) (Homo sapiens, UniProt Q8IWL1+Q8IWL2)"
class_label = "not fulfilled"

[[record]]
molecule = "OC[C@@H]1OC(O)[C@@H](O)[C@H](O)[C@H]1O (stereo partly drawn) [Glc, L(−)-glucose]"
measured_on = "hSP-A (human SP-A, isolated from BAL of PAP patient) (Homo sapiens, UniProt Q8IWL1+Q8IWL2)"
class_label = "not fulfilled"

[[record]]
molecule = "CC(=O)N[C@H]1C(O)O[C@H](CO)[C@H](O)[C@@H]1O (stereo partly drawn) [GalNAc, N-acetyl-D-galactosamine]"
measured_on = "hSP-A (human SP-A, isolated from BAL of PAP patient) (Homo sapiens, UniProt Q8IWL1+Q8IWL2)"
class_label = "not fulfilled"

[[record]]
molecule = "CC(=O)N[C@@H]1[C@@H](O)[C@H](O)[C@@H](CO)O[C@@H]1O [GlcNAc, N-acetyl-D-glucosamine]"
measured_on = "hSP-A (human SP-A, isolated from BAL of PAP patient) (Homo sapiens, UniProt Q8IWL1+Q8IWL2)"
class_label = "not fulfilled"

[[record]]
molecule = "O=C[C@H](O)[C@@H](O)[C@@H](O)[C@H](O)CO [Gal, D(+)-galactose]"
measured_on = "hSP-A (human SP-A, isolated from BAL of PAP patient) (Homo sapiens, UniProt Q8IWL1+Q8IWL2)"
class_label = "not fulfilled"

[[record]]
molecule = "OC[C@H]1O[C@H](O[C@H]2[C@H](O)[C@@H](O)[C@H](O)O[C@@H]2CO)[C@H](O)[C@@H](O)[C@@H]1O [Maltose, D(+)-maltose]"
measured_on = "hSP-A (human SP-A, isolated from BAL of PAP patient) (Homo sapiens, UniProt Q8IWL1+Q8IWL2)"
class_label = "fulfilled"

